TEST_DESCRIPTION: Pharmacokinetics assay in rats
Format: in vivo, SD rats
CONDITION_NOTES: both sexes, SD, rat, plasma, po, 50 mg/kg, SD rats, intragastric, 50 mg/Kg (as free acid); read-out: Time to peak Tmax
The reader will find reported Tmax values listed item by item below.
Express it in h; write the number only.

Value lookup for Tmax; key = CC1=NN(c2ccc3c(c2)CCC3)C(=O)/C1=N\Nc1cccc(-c2cccc(C(=O)O)c2)c1O [Example 3]
5.5

Value lookup for Tmax; key = CC1=NN(c2ccc3c(c2)C(C)(C)CC3)C(=O)/C1=N\Nc1cccc(-c2ccc(C(=O)O)o2)c1O.NCCO.NCCO [Example 4]
2.25

Value lookup for Tmax; key = CC1=NN(c2ccc3c(c2)CCC3)C(=O)/C1=N\Nc1cccc(-c2cccc(C(=O)O)c2)c1O.NCCO.NCCO [Example 1]
3.25

----------
TEST_DESCRIPTION: Pharmacokinetics assay in rats
Assay type: in vivo, SD rats
CONDITION_NOTES: both sexes, SD, rat, plasma, po, 50 mg/kg, SD rats, intragastric, 50 mg/Kg (as free acid); read-out: Half-Life t½ (converted)
TEST_READOUT: half-life (min)
Express it in min; write the number only.

COMPOUND | U | REPORTED
CC1=NN(c2ccc3c(c2)CCCC3)C(=O)/C1=N\Nc1cccc(-c2ccc(C(=O)O)o2)c1O.NCCO.NCCO [Example 7] | min | 834

Value lookup for half-life; key = CC1=NN(c2ccc3c(c2)CCC3)C(=O)/C1=N\Nc1cccc(-c2cccc(C(=O)O)c2)c1O.NCCO.NCCO [Example 1]
323

Value lookup for half-life; key = CC1=NN(c2ccc3c(c2)CCCC3)C(=O)/C1=N\Nc1cccc(-c2ccc(C(=O)[O-])o2)c1[O-].[Na+].[Na+] [Example 14]
283

Value lookup for half-life; key = CC1=NN(c2ccc3c(c2)CCCC3)C(=O)/C1=N\Nc1cccc(-c2coc(C(=O)O)c2)c1O.NCCO.NCCO [Example 22]
597

Value lookup for half-life; key = CC1=NN(c2ccc3c(c2)CCCC3)C(=O)/C1=N\Nc1cccc(-c2coc(C(=O)O)c2)c1O [Example 22f]
553

Value lookup for half-life; key = CC1=NN(c2ccc3c(c2)CCC3)C(=O)/C1=N\Nc1cccc(-c2ccc(C(=O)O)o2)c1O.NCCO.NCCO [Example 16]
125

----------
TEST_DESCRIPTION: Pharmacokinetics assay in rats
Format: in vivo, SD rats
CONDITION_NOTES: SD rats, intragastric, 50 mg/Kg (as free acid); 50 mg/kg
The reader will find reported Time to peak Tmax values listed item by item below.
Field note: include the unit after the figure.

The following molecules have reported results that may help.
MOLECULE | Time to peak Tmax
CC1=NN(c2ccc3c(c2)CCCC3)C(=O)/C1=N\Nc1cccc(-c2ccc(C(=O)O)o2)c1O [Example 23] | 3.25 ± 3.18 h
CC1=NN(c2ccc3c(c2)CCCC3)C(=O)/C1=N\Nc1cccc(-c2ccc(C(=O)O)o2)c1O [Example 12] | 1.38 ± 1.11 h

Value lookup for Time to peak Tmax; key = CC1=NN(c2ccc3c(c2)CCCC3)C(=O)/C1=N\Nc1cccc(-c2ccc(C(=O)O)o2)c1O [Example 9]
2.88 ± 2.59 h
